System Name: T1, control peptide mixture P20/HLA-A*02:01 complexes on T2 cells (human)
T1 construct: whole, on cells; A pool of 20 different peptide/HLA-A*02:01 complexes on one cell population, not a single complex; also called T2-P20
Protocol Notes: flow cytometry, scFv phage on T2 cells, anti-M13 + PE anti-mouse IgG

Binder | Median MFI (PE-A)
Phage clone 16 (scFv, fusion to the phage coat protein not described) scFv: DVVMTQSPLSLPVTLGQPASISCRSSQSLIYSNGNTYLTWFHQRPGQPPRRLIHKVSNRDSGVPDRFSGSGSGSDFTLKISRVEAEDVGIYYCMQGTHWPPTFGGGTKLEIKRSRGGGGSGGGGSGGGGSLEMAEVQLVQSGAEVKKPGESLKISCKGSGYSFTSYWIGWVRQMPGKGLEWMGIIYPGDSDTRYSPSFQGQVTISADKSISTAYLQWSSLKASDTAMYYCARGYDSWGQGTLVTVSS | 4190 MFI
